For each of the molecules below, state its growth inhibition.
- protocol.details: OD615 S. cerevisiae growth inhibition, permissive medium, pilot counter-assay, permissive growth control for S. cerevisiae lifespan shortening project (AID 705)
- study.conditions: OD615, 24 h, at 10 µM, hits give high values
Give bare numbers, in %.

These solved cases illustrate the format of a correct answer.
INSERT INTO results (molecule, unit_symbol, recorded_measurement) VALUES
  ('O=C(CSc1nc2c(c(=O)n1-c1ccc(Br)cc1)SCC2)NCC1CCCO1 (stereo unspecified)', '%', -11.1),
  ('O=C(O)c1cc(S(=O)(=O)N2CCCCCC2)c(Cl)cc1Cl', '%', -2.36),
  ('Cc1csc(=N)n1-c1ccc(Cl)cc1', '%', -6.4);

Would you mind giving growth inhibition for every molecule in the list below?
1. COc1cc2[nH]c(=O)n(CCC(=O)NCc3cccnc3)c(=O)c2cc1OC
2. COc1ccc(-n2c(Cn3c(=O)sc4ccccc43)nnc2SCC(N)=O)cc1
3. O=C(Nc1nc2ccccc2n1CCOc1ccc(Cl)cc1)c1ccco1
4. COc1nc(Nc2ccc(C(C)=O)cc2)nc(OC)n1
5. Cc1ccc2[nH]c(=O)c3cc(C(=O)N(C)Cc4ccco4)sc3c2c1
6. CCSC1=C(C#N)C(c2ccc(C)s2)CC(=O)N1 (stereo unspecified)

RESULT:
[-19.1, -10.9, 0.61, 0.42, -11.6, -16.1]

====

- protocol.details: RAM signaling pathway blockade in yeast – S. cerevisiae, Pdr1DBD-CYC8 efflux-inhibited sensitized strain, primary screen (AID 1298);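 further: 0% = DMSO untreated cells without growth and 100% = 10 µM 1-NA-PP1 full growth; higher means more yeast growth rescued from 5-FOA killing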
- study.conditions: S. cerevisiae cbk1-as DSE1-URA3 strain, 5-FOA growth OD615, 2 d; at 50 µM; hits give high values
parameter: RAM network inhibition (%)
Give bare numbers, in %.

Here's what some known entries look like.
INSERT INTO assay_data (compound, recorded_measurement) VALUES
  ('Clc1ccc(-c2nnc(N3CCCC3)nn2)cc1', 0.52),
  ('CC(C)(C)c1nc(CN2CCCCC2)cc(CN2CCCCC2)c1O', 1.19),
  ('Cc1c(C#N)c2ncn(Cc3ccccc3)c(=O)c2n1-c1ccccc1', 4.19),
  ('CC(=O)c1c(N(C)C)ccnc1C(F)(F)F', 0.62),
  ('Cc1ccc2nc(N3CCOCC3)c3nncn3c2c1', 1.57);

Could I get RAM network inhibition for every one of these entries?
1. COc1ccc(N2CCN(c3cc(C)c4ccc(O)cc4n3)CC2)cc1
2. CC1CC(NC(=O)CCn2c(=O)oc3ccccc32)CC(C)(C)C1 (centres undefined)
3. CCOC(=O)N1CCN(C(c2ccc(C(C)C)cc2)c2sc3nc(C)nn3c2O)CC1 (centres undefined)

RESULT:
1: 6.62; 2: 4.18; 3: 0.93

====

I'd appreciate it if you could supply viability values for the items below.
- protocol.details: growth suppression of beta-catenin knockout HCT116, pilot screen, human colon tumor cells (AID 823);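 further: 0% = wells killed by 20 µM Hyamine and 100% = untreated DMSO cell wells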
- study.conditions: CellTiter-Glo, 60 h, at 10 µM, hits give low values
Records with an inconclusive call do not appear. Calls of active or inactive are those of the source.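 Rule for the calls: active = cell viability at or below a set limit in both duplicate runs, the limit being the all-compound median minus 4 SD (cut at about 23% in these data, passing the limit was not always enough); inconclusive = no clear call, values can overlap the other calls; inactive = the rest.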

Guide cases for viability, answers given:
INSERT INTO results (compound, parameter, recorded_measurement) VALUES
  ('Cc1nc2ccccn2c1C(=O)NC1CCCCC1', 'viability', '101% (inactive)'),
  ('O=C1NC(c2cccs2)C(C(=O)c2ccccc2)C(O)(C(F)(F)F)N1 (centres undefined)', 'viability', '94.8% (inactive)');

Hi, could you look up viability for each item in my list?
1. C=CC1C(N2CCOCC2)C(C)(C)S1(=O)=O (centres undefined)
2. O=S(=O)(c1cccs1)N1CCCc2ccccc21

RESULT:
1: 102% (inactive); 2: 83.5% (inactive)

====

- protocol.details: growth suppression of PTEN-deleted HCT116, pilot screen, cell-based, HCT116 clonal line, CellTiter-Glo (AID 824);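 further: 0% = 20 µM Hyamine control and 100% = vehicle cell control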
- study.conditions: 60 h, at 10 µM, hits give low values
Records with an inconclusive call do not appear.
parameter: viability (%)
Give bare numbers, in %.

Sample answers from the record:
INSERT INTO measurements (compound, parameter, recorded_measurement) VALUES
  ('CCOC(=O)C1=C(C)NC(C)=C(C(=O)OCC)C1c1nc2ccccc2[nH]1', 'viability', 96.3),
  ('Cc1ccc2oc(=O)n(CCOc3ccccc3Cl)c2c1', 'viability', 83.9),
  ('Cn1ccnc1SCc1cn2cc(Br)ccc2n1', 'viability', 84.7),
  ('CCCOC(=O)c1ccc(-n2nnnc2SCC(=O)N2CCCCC2)cc1', 'viability', 86);

Alright, here's another compound for you.
QUERY: Can you look up the measured viability of CCSc1nc2c(c(=O)[nH]1)C(C(C)C)C(C#N)=C(N)O2 (stereo not given) for me?
RESULT: 98.9

====

- protocol.details: OD615 S. cerevisiae growth inhibition, permissive medium, pilot counter-assay, permissive growth control for S. cerevisiae lifespan shortening project (AID 705)
- study.conditions: OD615, 24 h, at 10 µM, hits give high values
Active and inactive are the calls of the source.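 Rule for the calls: active = growth inhibition above 25% in both replicates, a cutoff set 3 SD above the mean; inconclusive = above 25% in only one replicate; inactive = the rest.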
For each record, write down the corresponding growth inhibition.

Recorded results for 3 molecules are shown here.
INSERT INTO results (molecule, recorded_measurement) VALUES
  ('COC(=O)c1cn(C(C)C(=O)NCc2ccco2)c2ccccc12 (stereo not drawn)', '-16.9% (inactive)'),
  ('CC(C)COC(=O)C1C2C=CC3(CN(C4CCCC4)C(=O)C13)O2 (stereo not drawn)', '-14.1% (inactive)'),
  ('Brc1ccc(-c2nnc(-c3ccco3)o2)cc1', '-19.6% (inactive)');

For every item in the list below, what is its measured growth inhibition?
1. c1ccc2[nH]c(SCCN3CCOCC3)nc2c1
2. Cc1ccc(/C(O)=C2/C(=O)C(=O)N(CCN3CCOCC3)C2c2cccnc2)cc1 (stereo not drawn)
3. O=C(NCc1ccccc1)c1ccc(/C=N/O)nc1
4. COC(=O)C1=C(C)NC(=O)NC1c1cn(-c2ccccc2)nc1-c1cccs1 (stereo not drawn)
5. O=C(O)C1CC=CCC1C(=O)Nc1cccc(Cl)c1Cl (stereo not drawn)
6. O=C(NCc1cn2ccsc2n1)c1cccs1
7. Cc1cccc(NC(=O)CN2C(=O)COc3ccc(Cl)cc32)c1C

RESULT:
-2.45% (inactive)
6.32% (inactive)
-17.6% (inactive)
1.5% (inactive)
-8.95% (inactive)
-11.6% (inactive)
-3.47% (inactive)

====

- protocol.details: growth suppression of beta-catenin knockout HCT116, pilot screen, human colon tumor cells (AID 823);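 further: 0% = wells killed by 20 µM Hyamine and 100% = untreated DMSO cell wells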
- study.conditions: CellTiter-Glo, 60 h, at 10 µM, hits give low values
Records with an inconclusive call do not appear.
For each record, write down the corresponding viability.
Numbers only, in %.

Use these answered entries as a reference point.
INSERT INTO results (molecule, unit_symbol, recorded_measurement) VALUES
  ('O=C(NCc1ccc2c(c1)OCO2)c1ccc(NC(=O)C2CCCO2)cc1 (stereo not given)', '%', 102),
  ('COc1ccc(COC(=O)C2=C(C)NC(=O)NC2c2ccc(O)c(OC)c2)cc1 (stereo not given)', '%', 93.1);

Give one value of viability per listed molecule.
1. COC(=O)c1ccc(OC(=O)c2nn(C)cc2Cl)c(OC)c1
2. Cc1ccc2oc(=O)n(CCOc3ccccc3Cl)c2c1
3. CCOC(=O)c1sc2nc3n(c(=O)c2c1C)CCCCC3
4. COc1ccccc1CC(=O)N1CCN(c2cccc(C(F)(F)F)c2)CC1
5. CCOC(=O)CSc1nccc(N(C)C)c1C#N
6. COc1ccc(OC)c2sc(NC(=O)c3ccc(Br)s3)nc12
7. CC(=O)N1CCc2cc(C(=O)CN3CCC(C)CC3)ccc21
8. CC1CCCC(NC(=O)CSc2nnnn2C)C1C (stereo not given)

RESULT:
1. 101
2. 88.5
3. 87.5
4. 39.9
5. 99
6. 85.1
7. 104
8. 95.5

State the recorded viability for every item in the following list.
1. Cc1cc(C)nc(NS(=O)(=O)c2ccc(NC(=O)c3ccco3)cc2)n1
2. Cc1cc(C)cc(N(CC(=O)N2CCn3c2nc2ccccc23)S(=O)(=O)c2c(C)noc2C)c1
3. CCC(C)Sc1nnc(Cc2cc(=O)[nH]c(=O)[nH]2)n1-c1ccc(F)cc1 (stereo not given)
4. CC(C)C(=O)Nc1ccc(Nc2ccccc2)cc1
5. COC(=O)c1ccc(NC(=O)CSc2nnc(COc3ccc4c(c3)CCCC4)o2)cc1

RESULT:
[100, 88.9, 97.1, 105, 97.8]

====

- protocol.details: RAM signaling pathway blockade in yeast – S. cerevisiae, Pdr1DBD-CYC8 efflux-inhibited sensitized strain, primary screen (AID 1298);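 further: 0% = DMSO untreated cells without growth and 100% = 10 µM 1-NA-PP1 full growth; higher means more yeast growth rescued from 5-FOA killing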
- study.conditions: S. cerevisiae cbk1-as DSE1-URA3 strain, 5-FOA growth OD615, 2 d; at 50 µM; hits give high values
Provide the reported RAM network inhibition of each item.
Numbers only, in %.

INSERT INTO assay_data (smiles_notation, recorded_measurement) VALUES
  ('COc1ccccc1C(=O)Nc1nnc(-c2ccc(F)cc2)o1', 2.59),
  ('Cn1c(=O)cc(N2CCCCC2)[nH]c1=O', -0.8),
  ('CCOC(=O)Cn1c(=O)oc2cc(S(=O)(=O)N3CCN(c4ccccn4)CC3)ccc21', 3.64);

Proceed to the following item.
QUERY: Endpoint output: RAM network inhibition of `Cc1ccc(-c2nn(C)c(=O)c3ccccc23)cc1S(=O)(=O)N1CCCC1` . Value?
RESULT: 2.78
